All figures here come from the supplement of paper PMC4862054.

System: CAL-120
Test: normalised viability (% of control), CellTiter-Blue; higher = more viable cells (about 100 = DMSO control)
Details: 10 nM; incubation time: 72 h
parameterMeasured: normalised viability (%)
Record the value in %, omitting the unit from your answer.

Ask: Please tell me: normalised viability of COc1c(C)cnc(Cn2cnc3c(Cl)nc(N)nc32)c1C [BIIB021] , system CAL-120?
Result: 84.1

Ask: Would you mind doing COC1=C2C[C@@H](C)C[C@H](OC)[C@H](O)[C@@H](C)/C=C(\C)[C@H](OC(N)=O)[C@@H](OC)/C=C\C=C(/C)C(=O)NC(=CC1=O)C2=O [Geldanamycin] as well?
Result: 91

Ask: // same read-out, input: c1ccc(C2CN3CCSC3=N2)cc1 (stereo not given) [Tetramisole]
Result: 110

Ask: Quick one: COc1cc(Nc2ncc(F)c(Nc3ccc4c(n3)NC(=O)C(C)(C)O4)n2)cc(OC)c1OC [R406]
Result: 90.6

Ask: Same read-out for O=c1[nH]c(=O)n([C@H]2C[C@H](O)[C@@H](CO)O2)cc1F [Floxuridine] ?
Result: 94.4

---

Tested on: BT-549
Test: normalised response (% of control), CellTiter-Glo; higher = more viable cells (100 = DMSO, 0 = benzethonium chloride kill control)
Settings: incubation time: 72 h
# normalised response per record follows
Kindly answer with a numeric value in %, unit omitted.

Consider the reported normalised response for these compounds:
O=c1[nH]c(=O)n([C@H]2C[C@H](O)[C@@H](CO)O2)cc1F [Floxuridine] (100 nM)	94.4
CC(C)(C)c1cc(NC(=O)Nc2ccc(-c3cn4c(n3)sc3cc(OCCN5CCOCC5)ccc34)cc2)no1 [Quizartinib] (10 nM)	108
COc1cc(Nc2ncc(F)c(Nc3ccc4c(n3)NC(=O)C(C)(C)O4)n2)cc(OC)c1OC [Tamatinib] (100 nM)	98.9
COc1cccc2c1C(=O)c1c(O)c3c(c(O)c1C2=O)C[C@@](O)(C(C)=O)C[C@@H]3O[C@H]1C[C@H](N)[C@H](O)[C@H](C)O1 [Daunorubicin] (10 nM)	103
CCOc1cc2ncc(C#N)c(Nc3ccc(OCc4ccccn4)c(Cl)c3)c2cc1NC(=O)/C=C/CN(C)C [Neratinib] (10 nM)	97.9
C[C@@]1(C(=O)Nc2ccc(F)nc2)CCCN1c1nc(Nc2cc(C3CC3)n[nH]2)c2cccn2n1 (100 nM)	86.5

Now look at this one.
Ask: Returns the measured normalised response for the input compound. Input: O=c1[nH]cc(F)c(=O)[nH]1 [Fluorouracil] (100 nM)
Result: 109

---

Tested on: CAL-120
Details: 72 h
parameterMeasured: EC50, CellTiter-Blue viability (nM)
Your answer is read as nM, so omit the unit and give the number.

Field: example entries. Status: answers known.
Cn1c(=O)c(F)c(Nc2ccc(I)cc2F)c2c(=O)n(C[C@@H](O)CO)cnc21	401
COC1=C2C[C@@H](C)C[C@H](OC)[C@H](O)[C@@H](C)/C=C(\C)[C@H](OC(N)=O)[C@@H](OC)/C=C\C=C(/C)C(=O)NC(=CC1=O)C2=O	38.1
C[C@@]1(C(=O)Nc2ccc(F)nc2)CCCN1c1nc(Nc2cc(C3CC3)n[nH]2)c2cccn2n1	1930

Ask: Notebook: pull reported EC50, CellTiter-Blue viability for CAL-120, entry COc1ncc(-c2ccc3nccc(-c4ccnnc4)c3c2)cc1NS(=O)(=O)c1ccc(F)cc1F
Result: 20.1

---

System: SK-BR-3
Assay: normalised viability (% of control), CellTiter-Blue; higher = more viable cells (about 100 = DMSO control)
Conditions: 100 nM; incubation time: 72 h
parameterMeasured: normalised viability

Recorded results for 3 compounds are shown here.
COc1cc(Nc2ncc(F)c(Nc3ccc4c(n3)NC(=O)C(C)(C)O4)n2)cc(OC)c1OC [R406]	95.7%
c1ccc(C2CN3CCSC3=N2)cc1 (centres undefined) [Tetramisole]	104%
COc1ccc(C2=N[C@@H](c3ccc(Cl)cc3)[C@@H](c3ccc(Cl)cc3)N2C(=O)N2CCNC(=O)C2)c(OC(C)C)c1 [Nutlin-3]	72.8%

Next compound, normalised viability to be filled in.
Ask: Missing value: normalised viability, SK-BR-3, entry O=P(O)(NCCCl)NCCCl [Ifosfamide mustard] . Fill in?
Result: 86.2%

---

// reported normalised response per item
Tested on: BT-474
Assay: normalised response (% of control), CellTox Green; higher = less cell death (100 = DMSO, 0 = benzethonium chloride kill control)
Conditions: incubation time: 72 h
Give the quantity in %, number only.

These solved cases illustrate the format of a correct answer.
COc1c(C)cnc(Cn2cnc3c(Cl)nc(N)nc32)c1C [BIIB021] (1000 nM)	77.3
O=C(c1ccc(OCCN2CCCCC2)cc1)c1c(-c2ccc(O)cc2)sc2cc(O)ccc12 [Raloxifene] (10000 nM)	95.4
O=c1[nH]c(=O)n([C@H]2C[C@H](O)[C@@H](CO)O2)cc1F [Floxuridine] (10000 nM)	104

Ask: Request body: readout normalised response, system BT-474, query COC(=O)C[C@](O)(CCCC(C)(C)O)C(=O)O[C@@H]1C(OC)=C[C@]23CCCN2CCc2cc4c(cc2[C@H]13)OCO4 [Omacetaxine] (100 nM) . Return the value.
Result: 98.3

---

# normalised response per entry
System: BT-549
Assay: normalised response (% of control), CellTiter-Glo; higher = more viable cells (100 = DMSO, 0 = benzethonium chloride kill control)
Conditions: incubation time: 72 h
Report as a plain number; the unit % is understood.

Solved cases below.
CCS(=O)(=O)c1cccc(-c2cc(C(=O)NC3CCN(C)CC3)c(C)c3[nH]c4ncc(C)cc4c23)c1 [TAK-901] (1 nM)	101
CC(C)C[C@H](NC(=O)[C@H](Cc1ccccc1)NC(=O)c1cnccn1)B(O)O [Bortezomib] (1 nM)	98.2
CCOc1cc2ncc(C#N)c(Nc3ccc(OCc4ccccn4)c(Cl)c3)c2cc1NC(=O)/C=C/CN(C)C [Neratinib] (1 nM)	96.3

Ask: # input molecule: O=c1[nH]cc(F)c(=O)[nH]1 [Fluorouracil] (1000 nM) ; wanted: its normalised response
Result: 104

---

System: BT-474
Test: normalised response (% of control), CellTiter-Glo; higher = more viable cells (100 = DMSO, 0 = benzethonium chloride kill control)
Settings: incubation time: 72 h
parameterMeasured: normalised response (%)
The answer is to be given in %; state only the numeric part.

Below, each entry is followed by its recorded normalised response result.
CC(=O)O[C@H]1C(=O)[C@@]2(C)[C@H]([C@H](OC(=O)c3ccccc3)[C@]3(O)C[C@H](OC(=O)[C@H](O)[C@@H](NC(=O)c4ccccc4)c4ccccc4)C(C)=C1C3(C)C)[C@]1(OC(C)=O)CO[C@@H]1C[C@@H]2O [Paclitaxel] (10 nM)	60.3
Cn1cnc2c(F)c(Nc3ccc(Br)cc3F)c(C(=O)NOCCO)cc21 [MEK-162] (10 nM)	103
Nc1nccc(-c2c(-c3ccc(F)cc3)ncn2C2CCCCC2)n1 (100 nM)	99.9
O=C(c1ccc(OCCN2CCCCC2)cc1)c1c(-c2ccc(O)cc2)sc2cc(O)ccc12 [Raloxifene] (100 nM)	101
CCCC(CCC)C(=O)O [Valproic acid] (10000 nM)	102

Ask: Under BT-474: normalised response value of COC1=CC(c2cc3ccccc3[nH]2)=N/C1=C\c1[nH]c(C)cc1C [Obatoclax] (100 nM) ?
Result: 88.8

Ask: Let us now turn to CN(c1ccccc1CNc1nc(Nc2ccc3c(c2)CC(=O)N3)ncc1C(F)(F)F)S(C)(=O)=O (100 nM)
Result: 89.8

Ask: Request: CCS(=O)(=O)c1cccc(-c2cc(C(=O)NC3CCN(C)CC3)c(C)c3[nH]c4ncc(C)cc4c23)c1 [TAK-901] (10 nM)
Result: 102

Ask: Another compound: CC(C)(C)c1cc(NC(=O)Nc2ccc(-c3cn4c(n3)sc3cc(OCCN5CCOCC5)ccc34)cc2)no1 [Quizartinib] (10 nM)
Result: 109

---

Test system: HDQ-P1
Test: normalised response (% of control), CellTox Green; higher = less cell death (100 = DMSO, 0 = benzethonium chloride kill control)
Conditions: incubation time: 72 h
# reported normalised response; entries follow
Give the figure together with its unit, number first.

Please review the entries below; each comes with its answer.
COC1=CC(c2cc3ccccc3[nH]2)=N/C1=C\c1[nH]c(C)cc1C [Obatoclax] (10000 nM)	102%
COc1cc(Nc2ncc(F)c(Nc3ccc4c(n3)NC(=O)C(C)(C)O4)n2)cc(OC)c1OC [Tamatinib] (100 nM)	107%
COc1cc(Nc2ncc(F)c(Nc3ccc4c(n3)NC(=O)C(C)(C)O4)n2)cc(OC)c1OC [Tamatinib] (1000 nM)	105%
COc1ccc(C2=N[C@@H](c3ccc(Cl)cc3)[C@@H](c3ccc(Cl)cc3)N2C(=O)N2CCNC(=O)C2)c(OC(C)C)c1 [Nutlin-3] (1000 nM)	112%
CN1CCN(c2ccc3nc(-c4c(N)c5c(F)cccc5[nH]c4=O)[nH]c3c2)CC1 [Dovitinib] (100 nM)	115%
C[C@@]1(C(=O)Nc2ccc(F)nc2)CCCN1c1nc(Nc2cc(C3CC3)n[nH]2)c2cccn2n1 (100 nM)	89%

Ask: Any idea what normalised response was measured for COc1ncc(-c2ccc3nccc(-c4ccnnc4)c3c2)cc1NS(=O)(=O)c1ccc(F)cc1F (10 nM) ?
Result: 89.5%

Ask: CC(C)C[C@H](NC(=O)[C@H](Cc1ccccc1)NC(=O)c1cnccn1)B(O)O [Bortezomib] (1000 nM) ?
Result: 9.5%

Ask: Then this molecule: CCCC(CCC)C(=O)O [Valproic acid] (1000000 nM)
Result: 107%

Ask: Proceed to O=C(c1ccc(OCCN2CCCCC2)cc1)c1c(-c2ccc(O)cc2)sc2cc(O)ccc12 [Raloxifene] (100 nM)
Result: 90.1%

Ask: Entry to check: CC(=O)O[C@H]1C(=O)[C@@]2(C)[C@H]([C@H](OC(=O)c3ccccc3)[C@]3(O)C[C@H](OC(=O)[C@H](O)[C@@H](NC(=O)c4ccccc4)c4ccccc4)C(C)=C1C3(C)C)[C@]1(OC(C)=O)CO[C@@H]1C[C@@H]2O [Paclitaxel] (10 nM)
Result: 87.9%

Ask: Another molecule: Cc1cc(C(C)Nc2ccccc2)c2nc(N3CCOCC3)cc(=O)n2c1 (stereo not given) [TGX-221] (1000 nM)
Result: 103%

Ask: Same for O=c1[nH]cc(F)c(=O)[nH]1 [Fluorouracil] (1000 nM)
Result: 107%

Ask: # repeat for Cn1cnc2c(F)c(Nc3ccc(Br)cc3F)c(C(=O)NOCCO)cc21 [MEK-162] (10 nM)
Result: 102%

Ask: Nc1nccc(-c2c(-c3ccc(F)cc3)ncn2C2CCCCC2)n1 (100 nM) , same question.
Result: 104%
